assay: The drug is tested on WLS-039 corresponding to human gut metagenome with ENA study accession number: PRJEB37062 and ENA sample accession number: ERS12561746 for biotransformation under anaerobic condition. The drug concentrations were measured over 9 timepoints collected between 0 and 24 hours of incubation by liquid-chromatography-coupled mass spectrometry (LC–MS); conditions: 2 µM; note: call rule not given here
Quantity: Bacterial Biotransformation

Guide cases for Bacterial Biotransformation, answers given:
- CC(C(=O)O)c1ccc2c(c1)Cc1cccnc1O2 (stereo not given): Compound metabolized
- Cc1cc2c(cc1S(N)(=O)=O)S(=O)(=O)CCC2: Compound NOT metabolized
- CN1CCN(C2=Nc3cc(Cl)ccc3Nc3ccccc32)CC1: Compound metabolized
- CN1C(=O)CC(C)(c2ccccc2)C1=O (stereo not given) [METHSUXIMIDE]: Compound NOT metabolized
- Cc1ccc(-c2nc3ccc(C)cn3c2CC(=O)N(C)C)cc1: Compound NOT metabolized

Lab note: next molecule to report on.
Please give the measured Bacterial Biotransformation for this molecule: c1ccc([C@H]2CN3CCSC3=N2)cc1 Compound metabolized

---

details: human gut metagenome, 24 h, 2 µM
Where a SMILES comes first, the peptide text is derived from it. [ ]: non-standard residue; d: D form. pGlu = O=C1CC[C@@H](C(=O)O)N1; Thz = O=C(O)[C@@H]1CSCN1
Quantity: Bacterial Biotransformation

Completed entries (count: 4):
• CN1CCc2cccc3c2[C@H]1Cc1ccc(O)c(O)c1-3 [APOMORPHINE] = Compound NOT metabolized
• COc1ccc2c3c1O[C@H]1C[C@@H](O)C=C[C@@]31CCN(C)C2 [GALANTAMINE] = Compound NOT metabolized
• COc1ccccc1N1CCN(CC(O)COc2cccc3ccccc23)CC1 (stereo not drawn) [NAFTOPIDIL] = Compound NOT metabolized
• CNCCC(Oc1ccc(C(F)(F)F)cc1)c1ccccc1 (stereo not drawn) [FLUOXETINE] = Compound metabolized

Field request: Bacterial Biotransformation | item: COc1ccccc1OCC(O)COC(N)=O (stereo not drawn) [METHOCARBAMOL] Compound NOT metabolized

Suppose we examine the compound CNS(=O)(=O)Cc1ccc2[nH]cc(CCN(C)C)c2c1.O=C(O)CCC(=O)O [SUMATRIPTAN SUCCINATE] ; what Bacterial Biotransformation value has been reported? Compound NOT metabolized

Value lookup for Bacterial Biotransformation; key = CCC(COC(=O)c1cc(OC)c(OC)c(OC)c1)(c1ccccc1)N(C)C.O=C(O)/C=C\C(=O)O (stereo not drawn) Compound NOT metabolized

Find the recorded Bacterial Biotransformation belonging to C[C@@H]1C[C@H]2[C@@H]3CCC4=CC(=O)C=C[C@]4(C)[C@@]3(F)[C@@H](O)C[C@]2(C)[C@@]1(O)C(=O)CO [DEXAMETHASONE] and report it. Compound NOT metabolized

Can you share its Bacterial Biotransformation? I mean this compound: CC(C)(C#N)c1cc(Cn2cncn2)cc(C(C)(C)C#N)c1 [ANASTROZOLE] Compound NOT metabolized

Requested read-out: Bacterial Biotransformation. Entry: COc1c(C)c2c(c(O)c1C/C=C(\C)CCC(=O)OCCN1CCOCC1)C(=O)OC2 [MYCOPHENOLATE MOFETIL] Compound metabolized

Returns the measured Bacterial Biotransformation for the input compound. Input: O=C1CC[C@@H](C(=O)N2CSC[C@H]2C(=O)O)N1 [PIDOTIMOD] ([pGlu]-[Thz]-OH) Compound NOT metabolized

What value of Bacterial Biotransformation has been reported for the following compound? OC(CCN1CCCCC1)(c1ccccc1)C1CC2C=CC1C2 (stereo not drawn) [BIPERIDEN] Compound NOT metabolized

So what's the measured Bacterial Biotransformation for this one? C[C@@H](CO)NC(=O)[C@@H]1C=C2c3cccc4[nH]cc(c34)C[C@H]2N(C)C1.O=C(O)/C=C\C(=O)O [ERGONOVINE MALEATE] Compound metabolized

src = ChEMBL document CHEMBL5724914
